# Test system: DeltatarO mutant
# Method: S. aureus survival, RN4220 and DeltatarO strains – OD600, teichoic acid synthesis inhibitors, primary screen (AID 463173)
# Details: S. aureus RN4220 wild type/DeltatarO growth, OD600, 18 h, hits give low values, screened at 18.75 µg/mL (by protocol)
Among all 52,000 compounds or so, about 4,300 (8.3%) were called active. The full list was thinned out, with actives kept by preference.
Measurement Label: survival (%)
Lab book: enter the figure in %, no units written.

COC(=O)c1ccc(NC(=O)CSc2nc3ccc(OC)cc3[nH]2)cc1    184
O=C1CC(c2nc(-c3cccc(Cl)c3)no2)CN1c1ccc2c(c1)OCCO2 (stereo not drawn)    144
CCCSc1ncc(Cl)c(C(=O)Nc2ccc(S(=O)(=O)Nc3ncccn3)cc2)n1    67
OC(CC#CCN1CCOCC1)(c1ccccc1)c1ccccc1    83
CCC(=O)n1nc(-c2ccccc2)nc1N    104

Lookup: survival / DeltatarO mutant / CCOC(=O)c1c(-c2ccc(C)cc2C)csc1NC(=O)c1ccccc1Cl
47

What reported survival corresponds to COc1ccccc1OCCn1c(C(C)Oc2ccccc2)nc2ccccc21 (stereo not drawn) on DeltatarO mutant?
66

Param readout = survival; param system = DeltatarO mutant; param query = COc1ccc(-c2onc(C)c2C)cc1S(=O)(=O)NC1CCCCC1 ; response: value
72

Please tell me: survival of Cc1cccc(-c2nc(CSc3nncn4c3cc3sccc34)c(C)o2)c1 , system DeltatarO mutant?
75

----------
Entries and their measured survival follow.
# Tested on: DeltatarO mutant
# Method: S. aureus survival, RN4220 and DeltatarO strains – OD600, teichoic acid synthesis inhibitors, primary screen (AID 463173)
# Details: S. aureus RN4220 wild type/DeltatarO growth, OD600, 18 h, hits give low values, screened at 18.75 µg/mL (by protocol)
About 4,300 (8.3%) of roughly 52,000 compounds were called active. Shown is part of a subset that was picked to be rich in actives.
Quick reminder: number only, in %, skip the unit.

Guide cases for survival, answers given:
Cc1ccc(C(c2nnnn2C2CCCC2)N2CCc3ccccc32)cc1 (centres undefined)    100
CCC1CN(C(=O)N2CCC(C(=O)Nc3ccccc3F)CC2)c2ccccc2O1 (centres undefined)    74
COc1ccc(-c2nsc(NC(=O)COc3ccccc3OC)n2)cc1    61
CCOC(=O)c1cnc2ccc(OC)cc2c1Nc1ccc(OCc2ccccc2Cl)cc1    8
CCc1ccccc1NC(=O)c1ccc(F)c(S(=O)(=O)N2CCN(c3cccc(Cl)c3)CC2)c1    88

# get_value(readout='survival', item= N#CC(C#N)=Cc1cn(-c2ccccc2)nc1-c1ccccc1 )
68

Which survival value belongs to CCOC(=O)c1cnc2ccccc2c1Nc1ccc(N2CCOCC2)cc1 ?
63

Entry under review: O=S(=O)(NCc1ccco1)c1cccc(S(=O)(=O)N2CCCCC2)c1 . Reported survival?
90

Look at this molecule and give its reported survival. CC(C)n1cc2c(c1-c1ccccc1Cl)c(=O)n(C)c(=O)n2C
89

----------
# Test system: DeltatarO mutant
# Method: S. aureus survival, RN4220 and DeltatarO strains – OD600, teichoic acid synthesis inhibitors, primary screen (AID 463173)
# Details: S. aureus RN4220 wild type/DeltatarO growth, OD600, 18 h, hits give low values, screened at 18.75 µg/mL (by protocol)
Screen size: about 52,000 compounds; about 4,300 (8.3%) were called active. The list comes from a sample in which actives are over-represented; it also holds close analogues and randomly drawn compounds.
Items are presented alongside their recorded survival.

CCc1nn(CC(=O)NCCC(C)C)c(=O)c2cc3occc3n12    125% (inactive)

Endpoint output: survival of CCOC(=O)c1c(NC(=O)/C=C/c2ccc(OCC)cc2)sc(C)c1C . Value?
50% (inactive)

Suppose we examine the compound COc1ccc(S(=O)(=O)c2c(C)c(NS(=O)(=O)c3ccccc3)cc(C)c2O)cc1 ; what survival value has been reported?
67% (inactive)

Which measured survival value corresponds to Cc1ccc(CCNS(=O)(=O)c2ccc3c(c2)C(C(C)C)C(=O)N3)cc1 (stereo unspecified) ?
116% (inactive)

Which survival is reported for this compound? CC(C)(C)c1ccc(S(=O)(=O)N2CCC(c3ccncc3)CC2)cc1
109% (inactive)

Fill in the blank: the reported survival of CCN(C(=O)c1nn(-c2ccc(OC)c(Cl)c2)c(=O)c2c1c1ccccc1n2C)c1cccc(C(F)(F)F)c1 is ____.
75% (inactive)

----------
# Test system: DeltatarO mutant
# Method: S. aureus survival, RN4220 and DeltatarO strains – OD600, teichoic acid synthesis inhibitors, primary screen (AID 463173)
# Details: S. aureus RN4220 wild type/DeltatarO growth, OD600, 18 h, hits give low values, screened at 18.75 µg/mL (by protocol)
About 4,300 (8.3%) of roughly 52,000 compounds were called active. The sample as a whole holds a higher share of actives than the screen did.
Measurement Label: survival

These recorded examples may help you get a feel for the data.
CCN1/C(=C\C(=O)C2CC2)Sc2ccccc21    81% (inactive)
Cc1ccc(-c2onc(C)c2C)cc1S(=O)(=O)N1c2ccccc2CC1C (stereo not drawn)    79% (inactive)
COCCCNC(=O)Cn1cnc2sc(C)c(S(=O)(=O)N3CCC(C)CC3)c2c1=O    69% (inactive)
CCc1ccc(-c2nc(CS(=O)CC(=O)NCCc3ccc(C)cc3)c(C)o2)cc1 (stereo not drawn)    89% (inactive)
O=C(O)c1ccccc1SC1CC(=O)N(c2ccc(N3CCCCC3)cc2)C1=O (stereo not drawn)    90% (inactive)

Param readout= survival; system= DeltatarO mutant; entry= CC1=C(C(=O)Nc2cccnc2)C(c2ccccc2Cl)n2nc(-c3ccccc3)nc2N1 (stereo not drawn) ; returns value.
74% (inactive)

Missing value: survival, DeltatarO mutant, entry CCOc1ccccc1N1CC(c2nc3ccccc3n2CCCCOc2cc(C)ccc2C)CC1=O (stereo not drawn) . Fill in?
47% (active)

Query for DeltatarO mutant: what survival does the record show for CCCCN1CC(c2nc3ccccc3n2CCCCOc2ccc(C)cc2C)CC1=O (stereo not drawn) ?
13% (active)

Field: survival (DeltatarO mutant). Entry: O=C(c1cc2c(=O)[nH]c3ccccc3c2s1)N1CCN(c2ccc(F)cc2)CC1
51% (inactive)

Request body: readout survival, system DeltatarO mutant, query Cc1ccccc1NC(=O)C(=O)NCC(c1ccc2c(c1)OCO2)N1CCN(c2ccccc2)CC1 (stereo not drawn) . Return the value.
73% (inactive)

Find the measured survival: item O=C(O)CSc1nc2ccccc2c(=O)n1-c1ccccc1 , target or system DeltatarO mutant.
78% (inactive)

----------
# Test system: DeltatarO mutant
# Method: S. aureus survival, RN4220 and DeltatarO strains – OD600, teichoic acid synthesis inhibitors, primary screen (AID 463173)
# Details: S. aureus RN4220 wild type/DeltatarO growth, OD600, 18 h, hits give low values, screened at 18.75 µg/mL (by protocol)
Screen size: about 52,000 compounds; about 4,300 (8.3%) were called active. What follows is part of a selection rich in actives, with near analogues and random picks from the rest.
Examples of molecules with documented survival follow.
Respond numerically; units are % and should not be typed.

Check out these entries, answers already filled in.
Cc1ccc(NC(=O)CSc2nc(C)c(Cc3ccccc3)c(=O)[nH]2)cc1C    84
CN(C(=O)C1CCCN(c2ncnc3c2nc2n3CCCCC2)C1)c1ccccc1F (stereo unspecified)    81
COc1ccc2nc(NC(=O)c3nc(S(=O)(=O)Cc4ccc(C)cc4)ncc3Cl)sc2c1    82
COc1cc(CN(C(=O)Nc2cccc(Cl)c2)c2ccccn2)cc(OC)c1OC    68
O=S(=O)(Nc1nc2n(n1)C(c1ccc(F)cc1)C=C(c1ccc(Cl)cc1)N2)c1ccccc1 (stereo unspecified)    42

Could you now consider this next molecule?
So what's the measured survival for this one? CCOC(=O)c1ccc(NC(=O)CSc2nc3cc4ccccc4cc3[nH]2)cc1
65

----------
Items are presented alongside their recorded survival.
# Test system: DeltatarO mutant
# Method: S. aureus survival, RN4220 and DeltatarO strains – OD600, teichoic acid synthesis inhibitors, primary screen (AID 463173)
# Details: S. aureus RN4220 wild type/DeltatarO growth, OD600, 18 h, hits give low values, screened at 18.75 µg/mL (by protocol)
Among all 52,000 compounds or so, about 4,300 (8.3%) were called active. What follows is part of a selection rich in actives, with near analogues and random picks from the rest.
The reply should be a number in %, with the unit left off.

Observe how each entry below is paired with its result.
CCS(=O)(=O)Nc1cc(-c2cn3ccc(C)cc3n2)ccc1C    60
COC(=O)CN1C(=O)CSc2ccc(S(=O)(=O)Nc3ccccc3)cc21    91
Cc1ccc(C2=Nc3ccccc3N=C(c3ccc(F)cc3)C2)c(O)c1    60

Look up survival: COc1ccccc1CNS(=O)(=O)c1cnc(N)nc1
89

// survival lookup, key: COc1ccc(OC(C)C(=O)NCc2nc(-c3cccc(C)c3)no2)cc1 (stereo not given)
61
